Target: T1, hFLAG-EGF34+NRR-His6 (101V), the human Notch1 NRR immunogen (Notch1 V1307-Q1733) (human, UniProt P46531 1307-1733)
T1 construct: also called hNotch1 NRR; human NRR1
T1 sequence (P46531 other isoform, or with tags, fused parts or gaps limits assumed): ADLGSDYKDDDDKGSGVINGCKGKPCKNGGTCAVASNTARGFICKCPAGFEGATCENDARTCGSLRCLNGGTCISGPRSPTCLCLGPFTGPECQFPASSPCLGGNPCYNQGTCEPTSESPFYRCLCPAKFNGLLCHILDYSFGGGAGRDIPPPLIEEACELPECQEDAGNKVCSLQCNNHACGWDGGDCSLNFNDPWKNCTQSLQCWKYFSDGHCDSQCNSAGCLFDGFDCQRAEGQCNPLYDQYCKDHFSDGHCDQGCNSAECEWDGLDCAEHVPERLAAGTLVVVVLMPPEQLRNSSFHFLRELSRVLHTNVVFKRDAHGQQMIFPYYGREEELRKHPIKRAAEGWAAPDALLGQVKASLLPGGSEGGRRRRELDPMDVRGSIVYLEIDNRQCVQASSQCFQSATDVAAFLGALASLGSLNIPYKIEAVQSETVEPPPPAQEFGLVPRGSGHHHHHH
Assay: SPR (BIAcore-3000), IgG captured by anti-human IgG, NRR1-ECD injected 3.9-500 nM, 25 C
MEASURE: koff (s⁻¹)
// return numeric value only (unit: s⁻¹, not printed)

INSERT INTO results (binder, measure, number) VALUES
  ('Antibody A-1 (antibody, V domains shown, also called Antibody A-1-hIgG1) VH: EVQLVESGGGLVQPGGSLRLSCAASGFTFSSYWIHWVRQAPGKGLEWVARINPPNGSAHYADSVKGRFTISADTSKNTAYLQMNSLRAEDTAVYYCARGSGFRWVMDYWGQGTLVTVSS VL: DIQMTQSPSSLSASVGDRVTITCRASQDVSTAVAWYQQKPDGTVKLLIYSASFLYSGVPSRFSGSGSGTDFTLTISSLQPEDFATYYCQQSYTTPATFGQGTKVEIKR', 'koff', 0.00023),
  ('Antibody A-3 (antibody, V domains shown) VH: EVQLVESGGGLVQPGGSLRLSCAASGFTFSSYWIHWVRQAPGKGLEWVARINPANGSTRYADSVKGRFTISADTSKNTAYLQMNSLRAEDTAVYYCARGSGFRWVMDYWGQGTLVTVSS VL: DIQMTQSPSSLSASVGDRVTITCRASQDVSTAVAWYQQKPDGTVKLLIYSASFLYSGVPSRFSGSGSGTDFTLTISSLQPEDFATYYCQQSFSTPATFGQGTKVEIK', 'koff', 0.0004),
  ('Antibody A-2 (antibody, V domains shown, also called Antibody A-2-hIgG1) VH: EVQLVESGGGLVQPGGSLRLSCAASGFTFSSYWIHWVRQAPGKGLEWVARINPPNRSNQYADSVKGRFTISADTSKNTAYLQMNSLRAEDTAVYYCARGSGFRWVMDYWGQGTLVTVSS VL: DIQMTQSPSSLSASVGDRVTITCRASQDVSTAVAWYQQKPDGTVKLLIYSASFLYSGVPSRFSGSGSGTDFTLTISSLQPEDFATYYCQQFYTTPSTFGQGTKVEIKR', 'koff', 0.00022);

INPUT: Quick one: koff of Antibody A (antibody, V domains shown, Tested as full-length human IgG1 (hIgG1) made in CHO cells; also called anti-Notch1 NRR Antibody A; Antibody A-hIgG1) VH: EVQLVESGGGLVQPGGSLRLSCAASGFTFSSYWIHWVRQAPGKGLEWVARINPSNGSTNYADSVKGRFTISADTSKNTAYLQMNSLRAEDTAVYYCARGSGFRWVMDYWGQGTLVTVSS VL: DIQMTQSPSSLSASVGDRVTITCRASQDVSTAVAWYQQKPDGTVKLLIYSASFLYSGVPSRFSGSGSGTDFTLTISSLQPEDFATYYCQQSYTTPPTFGQGTKVEIKR ?
OUTPUT: 0.011
